The values you see were collected from ChEMBL document CHEMBL3102832.

- experimental-details: Plasma concentration in Lewis rat at 10 mg/kg, po after 8 hrs
- Type: ADME, organism-based
- Set-up: dose 10 mg/kg, route oral
measure: concentration at 8 h (nM)

{"cpd-smiles": "Cc1nc(-n2ccc(O)cc2=O)sc1C(=O)NCc1ccccc1", "measure": "concentration at 8 h", "endpoint-unit": "nM", "observed-result": 150}
